- TARGET SYSTEM: T1, Ovr110 (amino acids 1-282; Ovr110 Construct 1 without the 6-His tag) expressed on transiently transfected … (human, UniProt Q7Z7D3 25-282)
- T1 construct: signal peptide not removed here
- T1 sequence: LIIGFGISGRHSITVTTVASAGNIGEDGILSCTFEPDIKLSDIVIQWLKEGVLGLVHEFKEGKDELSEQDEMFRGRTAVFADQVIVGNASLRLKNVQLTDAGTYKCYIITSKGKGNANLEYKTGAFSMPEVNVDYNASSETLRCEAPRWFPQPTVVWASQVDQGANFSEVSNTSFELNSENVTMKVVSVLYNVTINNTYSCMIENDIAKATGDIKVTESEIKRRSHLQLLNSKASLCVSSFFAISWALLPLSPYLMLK
- PROCEDURE TEXT: flow cytometry; purified MAb; Ovr110-transfected 293F cells
REPORTED METRIC: MFI
Write no unit; give the number alone.

What value of MFI has been reported for the following binder? Ovr110.Q12 (antibody, IgG1, V domains shown, Mouse hybridoma MAb; also called Q12.2; Ovr110.Q12.2) VH: QVQLQQPGAELVKPGATVKLSCKTSGYTFTSYWMHWVKQRPGQGLEWIGEIDPSDSYTNYNQKFKGKATLTVDTSSTTAYMQLSSLTSEDSAVYYCAREYGNNDAMDYWGQGTSVTVSS VL: QIVLTQSPAIMSASPGEKVTMTCSASSGISYMHWYQQKPGTTPKRWIYDASKLASGVPSRFSGSGSGTSYSLTISSMEAEDAATYYCHQRRSYPFTFGSGTKLEIKR
5.25
